Assay: RP, Waters ACQUITY UPLC HSS C18, 100 × 2.1 mm, 1.7 µm, 40 °C, 0.35 mL/min, estimated dead time 0.63 min; A: water + 0.1% formic acid; B: methanol + 0.1% formic acid; gradient (min/%B) 0/0.5 4/70 4.5/98 5.4/98
Settings: stereoisomer not certain
parameter: LC retention time (min)
Express the result in min but write the number alone.

Sample answers from the record:
[
  {
    "compound": "CN(CC(=O)O)C(=N)N",
    "parameter": "LC retention time",
    "number": 0.82
  },
  {
    "compound": "CC1=CC(=O)NS(=O)(=O)O1",
    "parameter": "LC retention time",
    "number": 2.12
  },
  {
    "compound": "O=P(O)(O)OC(CO)CO",
    "parameter": "LC retention time",
    "number": 0.815
  },
  {
    "compound": "COc1ccc2nc(S(=O)Cc3ncc(C)c(OC)c3C)[nH]c2c1 (centres undefined)",
    "parameter": "LC retention time",
    "number": 4.42
  }
]

Pending compound:
Look up LC retention time for this compound: CCCC(NC(C)C(=O)N1C(C(=O)O)CC2CCCCC21)C(=O)OCC (centres undefined)
4.66
